Would you kindly list melting point for each of these compounds?
Numbers only; they are read as °C.

Endpoint output: melting point of O=C1CNC(=O)CN1 . Value?
300

Endpoint output: melting point of c1ccc(-c2cc(N3CCCC3)cc(N3CCCC3)c2)cc1 . Value?
174

Endpoint output: melting point of C=C[Si](OC(C)=O)(OC(C)=O)OC(C)=O . Value?
7

Endpoint output: melting point of OC1CCC(O)CC1 (stereo not given) . Value?
143

Endpoint output: melting point of COc1ccn(C)c(=O)c1C#N . Value?
202

Endpoint output: melting point of CC(=O)Nc1cccc(N=Nc2cccc(NC(C)=O)c2)c1 . Value?
272

Endpoint output: melting point of O=C(/C(=N/Nc1ccc(Cl)cc1Cl)S(=O)(=O)c1ccccc1)c1cccc2ccccc12 . Value?
162

Endpoint output: melting point of Brc1cccc2ncccc12 . Value?
46

Endpoint output: melting point of CNc1cc(=O)oc2ccccc12 . Value?
198

Endpoint output: melting point of CCCCCCCCCCCCOc1ccc(C(=O)O)cc1 . Value?
134

Endpoint output: melting point of CN(C)C(=S)SSC(=S)N(C)C . Value?
156

###

Would you kindly list melting point for each of these compounds?
Numbers only; they are read as °C.

Endpoint output: melting point of CCOC(=O)Nc1c([N+](=O)[O-])cc(Cl)cc1[N+](=O)[O-] . Value?
167

Endpoint output: melting point of O=Cc1cc(I)ccc1F . Value?
44

Endpoint output: melting point of C=CCCCCCCCCC . Value?
-49.2

Endpoint output: melting point of CC(=O)CC(=O)c1cccnc1 . Value?
85

Endpoint output: melting point of Nc1cccc2cc[nH]c12 . Value?
91

Endpoint output: melting point of Oc1ccc(O)c(O)c1 . Value?
140

Endpoint output: melting point of O=c1/c(=C/c2ccc3c(c2)OCO3)sc2n1CCCN=2 . Value?
151

Endpoint output: melting point of Cc1nn(C(=O)c2ccncc2)c2c1nnc1ccc(Cl)cc12 . Value?
162

Endpoint output: melting point of O=C(O)c1ccccc1S(=O)(=O)O . Value?
142

Endpoint output: melting point of COc1ccc(C(=O)c2ccc(C)cc2)cc1OC . Value?
109

Endpoint output: melting point of c1ccc(O[Si]23OCCN(CCO2)CCO3)cc1 . Value?
218

Endpoint output: melting point of CC(=O)C=P(c1ccccc1)(c1ccccc1)c1ccccc1 . Value?
204

###

Would you kindly list melting point for each of these compounds?

Endpoint output: melting point of N#Cc1c(F)cccc1-n1cccc1 . Value?
67 to 69 °C

Endpoint output: melting point of Cc1nc2scc(-c3ccccc3)c2c(=O)n1NC(=O)c1ccc(Cl)cc1 . Value?
235 to 236 °C

Endpoint output: melting point of CCOc1cc(-c2nccc3cc(OC)c(OC)cc23)cc(OCC)c1OCC . Value?
98 to 103 °C

Endpoint output: melting point of COC1(OC)CC[C@]2(C)[C@H]3CC[C@]4(C)C(=O)CC[C@@]4(O)[C@@H]3CC[C@@]2(C)C1 . Value?
175 to 176 °C

Endpoint output: melting point of N#Cc1cc([N+](=O)[O-])ccc1-n1cccc1 . Value?
96 to 98 °C

Endpoint output: melting point of NC(=S)C1CCN(C(=O)OCc2ccccc2)CC1 . Value?
128 to 130 °C

Endpoint output: melting point of O=C(O)c1cccnc1F . Value?
164 to 165 °C

Endpoint output: melting point of O=C(O)c1cccc(C(=O)O)c1C(=O)O . Value?
200 °C

###

Would you kindly list melting point for each of these compounds?

Endpoint output: melting point of COC(=O)c1cc2c(=O)oc3ccccc3c2nc1N . Value?
263 to 265 °C

Endpoint output: melting point of NC(=NO)c1ccc(C(F)(F)F)cc1 . Value?
125 to 128 °C

Endpoint output: melting point of Cc1cc(C(=O)NCc2ccc(Cl)cc2)no1 . Value?
140 to 143 °C

Endpoint output: melting point of O=C(O)c1cccc(Cn2cccn2)c1 . Value?
151 to 152 °C

Endpoint output: melting point of ON=Cc1cc(Br)c(O)c(Br)c1 . Value?
198 to 201 °C

Endpoint output: melting point of Cc1cccc(-n2cc[nH]c2=S)c1 . Value?
153 to 154 °C

Endpoint output: melting point of CC(C)CC1=CC(=Cc2ccc(-c3ccc([N+](=O)[O-])cc3)o2)C(=O)O1 . Value?
162 to 163 °C

Endpoint output: melting point of C[Si](C)(C)OS(=O)(=O)O[Si](C)(C)C . Value?
47 to 50 °C

Endpoint output: melting point of Brc1ccc(Oc2ccc(Br)cc2Br)cc1 . Value?
64 to 64.5 °C

Endpoint output: melting point of Oc1cc(O)nc(S)n1 . Value?
240 to 255 °C

Endpoint output: melting point of C=CC(=O)NC(CO)(CO)CO . Value?
136 to 141 °C

Endpoint output: melting point of NC(=O)C(F)(F)C(F)F . Value?
57 to 59 °C

Endpoint output: melting point of CCOC(=O)c1ccc(-n2c(C)ccc2C)cc1 . Value?
88 to 90 °C

Endpoint output: melting point of Cc1nc(-c2ccc(C(F)(F)F)cc2)sc1C(=O)O . Value?
237 to 238 °C

Endpoint output: melting point of CCOC(=O)c1c[nH]nc1C . Value?
136 to 138 °C

Endpoint output: melting point of N#Cc1ccc(-n2cccc2)cc1 . Value?
103 to 105 °C

Endpoint output: melting point of NC(c1ccc(F)cc1)C(N)c1ccc(F)cc1 (stereo unspecified) . Value?
100 to 104 °C

Endpoint output: melting point of CC(=O)N[C@@H](CCCCN)C(=O)O . Value?
256 to 258 °C

Endpoint output: melting point of Cc1cc(Br)ccc1N=C=S . Value?
45 to 46 °C

Endpoint output: melting point of CCCCCc1ccc(-c2nnc(S)[nH]2)cc1 . Value?
190 to 193 °C

Endpoint output: melting point of CC(=O)OCC1OC(C(N)=O)C(OC(C)=O)C(OC(C)=O)C1OC(C)=O (stereo unspecified) . Value?
127 to 130 °C

###

Measured property: melting point

Endpoint output: melting point of Cc1cc(C)c2c(c1C)CC2 . Value?
20 to 28 °C

Endpoint output: melting point of COC(=O)c1sc(-c2ccccc2)cc1N . Value?
147 to 149 °C

Endpoint output: melting point of NC(=S)N1CCCCC1 . Value?
127 to 129 °C

Endpoint output: melting point of O=[N+]([O-])c1ccc(O)c(CBr)c1 . Value?
145 to 149 °C

###

Measured property: melting point (°C)
Numbers only; they are read as °C.

Endpoint output: melting point of CCOC(=O)C(C(=O)OCC)C(Br)c1cc(C(Br)C(C(=O)OCC)C(=O)OCC)c([N+](=O)[O-])cc1[N+](=O)[O-] (stereo not drawn) . Value?
130

Endpoint output: melting point of O=C(O)c1cccc(OC(F)(F)F)c1 . Value?
89

Endpoint output: melting point of CC(C)(C)NC(=O)C1CCC2C3CCC4NC(=O)C=CC4(C)C3CCC12C (stereo not drawn) . Value?
253

Endpoint output: melting point of O=C(O)C=C(F)C(F)(F)C(F)(F)C(F)(F)C(F)(F)C(F)(F)C(F)(F)C(F)(F)F . Value?
105

Endpoint output: melting point of CCCCCc1ccc(O)cc1O . Value?
72.5

Endpoint output: melting point of C(=Cc1ccccc1)CCC=Cc1ccccc1 . Value?
82

###

Would you kindly list melting point for each of these compounds?

Endpoint output: melting point of CCCCCCCCCC(=O)c1ccccc1 . Value?
34 to 38 °C

Endpoint output: melting point of CCCCCC=CCC=CCCCCCCCC(=O)O . Value?
-5 °C

Endpoint output: melting point of CC(=O)/C(=N\Nc1cccc([N+](=O)[O-])c1)C(=O)C(F)(F)F . Value?
205 to 206 °C

Endpoint output: melting point of N[C@H]1CCC[C@H]1C(=O)O (relative stereo) . Value?
218 to 220 °C

Endpoint output: melting point of O=C=Nc1cccc2ccccc12 . Value?
4 °C

Endpoint output: melting point of OC(c1c2ccccc2cc2ccccc12)C(F)(F)F (centres undefined) . Value?
142 °C

Endpoint output: melting point of CCCCCCCCCCCCOC1OC(CO)C(OC2OC(CO)C(O)C(O)C2O)C(O)C1O (centres undefined) . Value?
217 °C

Endpoint output: melting point of CON(C)C(=O)Nc1ccc(Cl)cc1 . Value?
81.5 °C

Endpoint output: melting point of CC12CCC(O)CC1=CCC1C2CCC2(C)C1CCC2(O)C#Cc1ccccc1 (centres undefined) . Value?
162 to 165 °C

Data provenance: a melting point compilation (Tetko et al.)
